Target: Bacterial 70S ribosome
Test: Displacement of [14C]erythromycin from Escherichia coli ribosomes after 30 mins by scintillation spectrometer analysis
Reported Metric: pIC50
# pIC50: negative log10 of molar concentration; output just the value

(Q) Quickly give me recorded pIC50 for CCCC(=O)O[C@H]1[C@H](C)O[C@@H](O[C@H]2[C@H](N(C)C)[C@@H](O)[C@H](O[C@H]3[C@@H](CC=O)C[C@@H](C)[C@@H](OC(=O)CC)/C=C/C=C/C[C@@H](C)OC(=O)C[C@@H](O)[C@@H]3OC)O[C@@H]2C)C[C@@]1(C)O
(A) 5.77

(Q) Quickly give me recorded pIC50 for CCCC(=O)O[C@H]1[C@H](C)O[C@@H](O[C@H]2[C@H](N(C)C)[C@@H](OC(=O)CCC(=O)O)[C@H](O[C@H]3[C@@H](CC=O)C[C@@H](C)[C@@H](OC(C)=O)/C=C/C=C/C[C@@H](C)OC(=O)C[C@@H](O)[C@@H]3OC)O[C@@H]2C)C[C@@]1(C)O
(A) 5.48

(Q) Quickly give me recorded pIC50 for CO[C@@H]1[C@@H](O[C@@H]2O[C@H](C)[C@@H](O[C@H]3C[C@@](C)(O)[C@@H](OC(=O)CC(C)C)[C@H](C)O3)[C@H](N(C)C)[C@H]2O)[C@@H](CC=O)C[C@@H](C)[C@@H](O)/C=C/C=C/C[C@@H](C)OC(=O)C[C@H]1OC(C)=O
(A) 5.92

(Q) Quickly give me recorded pIC50 for CCCC(=O)O[C@H]1[C@H](C)O[C@@H](O[C@H]2[C@H](N(C)C)[C@@H](O)[C@H](O[C@H]3[C@@H](CC=O)C[C@@H](C)[C@@H](O)/C=C/C=C/C[C@@H](C)OC(=O)C[C@@H](OC(C)=O)[C@@H]3OC)O[C@@H]2C)C[C@@]1(C)O
(A) 5.92

====

Target: Bacterial 70S ribosome (Bacteria) (UniProt P0A7V0+P60723+P0AG67+P0A7R5+P0A7R9+P0A7S3+P0A7S9+P0AG59+P0ADZ4+P0A7T3+P0AG63+P0A7T7+P0A7U3+P0A7U7+P68679+P0A7V3+P0A7V8+P0A7W1+P02358+P02359+P0A7W7+P0A7X3+P0A7J3+P0A7J7+P0AA10+P0ADY3+P02413+P0ADY7+P0AG44+P0C018+P0A7K6+P0A7L0+P0A7L3+P0AG48+P61175+P0ADZ0+P60624+P68919+P0A7L8+P0A7M2+P0A7M6+P60422+P0AG51+P0A7N1+P0A7M9+P0A7N4+P0A7N9+P0A7P5+P0A7Q1+Q2EEQ2+P0A7Q6+P60438+P62399+P0AG55+P0A7K2)
Assay: Displacement of [14C]erythromycin from Escherichia coli ribosomes after 30 mins by scintillation spectrometer analysis
What pK50 was measured for each of the following?
Returns: the value as a bare number; no unit string appended.

(Q) Quickly give me recorded pK50 for CCCC(=O)O[C@H]1[C@H](C)O[C@@H](O[C@H]2[C@H](N(C)C)[C@@H](OC(=O)CC)[C@H](O[C@H]3[C@@H](CC=O)C[C@@H](C)[C@@H](O)/C=C/C=C/C[C@@H](C)OC(=O)C[C@@H](O)[C@@H]3OC)O[C@@H]2C)C[C@@]1(C)O
(A) 4.9

(Q) Quickly give me recorded pK50 for CCCC(=O)O[C@H]1[C@H](C)O[C@@H](O[C@H]2[C@H](N(C)C)[C@@H](OC(=O)CCC(=O)O)[C@H](O[C@H]3[C@@H](CC=O)C[C@@H](C)[C@@H](OC(C)=O)/C=C/C=C/C[C@@H](C)OC(=O)C[C@@H](O)[C@@H]3OC)O[C@@H]2C)C[C@@]1(C)O
(A) 5.5

(Q) Quickly give me recorded pK50 for CO[C@@H]1[C@@H](O[C@@H]2O[C@H](C)[C@@H](O[C@H]3C[C@@](C)(O)[C@@H](OC(=O)CC(C)C)[C@H](C)O3)[C@H](N(C)C)[C@H]2O)[C@@H](CC=O)C[C@@H](C)[C@@H](OC(C)=O)/C=C/C=C/C[C@@H](C)OC(=O)C[C@H]1O
(A) 6

(Q) Quickly give me recorded pK50 for CCCC(=O)O[C@H]1[C@H](C)O[C@@H](O[C@H]2[C@H](N(C)C)[C@@H](O)[C@H](O[C@H]3[C@@H](CC=O)C[C@@H](C)[C@@H](OC(C)=O)/C=C/C=C/C[C@@H](C)OC(=O)C[C@@H](O)[C@@H]3OC)O[C@@H]2C)C[C@@]1(C)O
(A) 6.1

(Q) Quickly give me recorded pK50 for CCCC(=O)O[C@H]1[C@H](C)O[C@@H](O[C@H]2[C@H](N(C)C)[C@@H](O)[C@H](O[C@H]3[C@@H](CC=O)C[C@@H](C)[C@@H](OC(=O)C(Cl)Cl)/C=C/C=C/C[C@@H](C)OC(=O)C[C@@H](O)[C@@H]3OC)O[C@@H]2C)C[C@@]1(C)O
(A) 5.9

(Q) Quickly give me recorded pK50 for CO[C@@H]1[C@@H](O[C@@H]2O[C@H](C)[C@@H](O[C@H]3C[C@@](C)(O)[C@@H](OC(C)=O)[C@H](C)O3)[C@H](N(C)C)[C@H]2O)[C@@H](CC=O)C[C@@H](C)[C@@H](O)/C=C/C=C/C[C@@H](C)OC(=O)C[C@H]1OC(C)=O
(A) 5.2

(Q) Quickly give me recorded pK50 for CO[C@@H]1[C@@H](O[C@@H]2O[C@H](C)[C@@H](O[C@H]3C[C@@](C)(O)[C@@H](OC(=O)CC(C)C)[C@H](C)O3)[C@H](N(C)C)[C@H]2O)[C@@H](CC=O)C[C@@H](C)[C@@H](OC(=O)CCl)/C=C/C=C/C[C@@H](C)OC(=O)C[C@H]1OC(C)=O
(A) 5.8

====

Tested on: Klebsiella pneumoniae
Experiment: Antimicrobial activity against Klebsiella pneumoniae ATCC 10031 by agar dilution method
Type: functional
Details: Klebsiella pneumoniae, ATCC 10031; read-out: MIC
What MIC was measured for each of the following?
// units = µg/mL; emit number, no label

(Q) Give reported MIC for CCCC(=O)O[C@H]1[C@H](C)O[C@@H](O[C@H]2[C@H](N(C)C)[C@@H](OC(=O)CC)[C@H](O[C@H]3[C@@H](CC=O)C[C@@H](C)[C@@H](O)/C=C/C=C/C[C@@H](C)OC(=O)C[C@@H](OC(C)=O)[C@@H]3OC)O[C@@H]2C)C[C@@]1(C)O (Klebsiella pneumoniae)
(A) 25

(Q) Give reported MIC for CCCC(=O)O[C@H]1[C@H](C)O[C@@H](O[C@H]2[C@H](N(C)C)[C@@H](OC(=O)CC)[C@H](O[C@H]3[C@@H](CC=O)C[C@@H](C)[C@@H](O)/C=C/C=C/C[C@@H](C)OC(=O)C[C@@H](O)[C@@H]3OC)O[C@@H]2C)C[C@@]1(C)O (Klebsiella pneumoniae)
(A) 12.5

(Q) Give reported MIC for CCCC(=O)O[C@H]1[C@H](C)O[C@@H](O[C@H]2[C@H](N(C)C)[C@@H](O)[C@H](O[C@H]3[C@@H](CC=O)C[C@@H](C)[C@@H](OC(=O)CC)/C=C/C=C/C[C@@H](C)OC(=O)C[C@@H](O)[C@@H]3OC)O[C@@H]2C)C[C@@]1(C)O (Klebsiella pneumoniae)
(A) 50

(Q) Give reported MIC for CCCC(=O)O[C@H]1[C@H](C)O[C@@H](O[C@H]2[C@H](N(C)C)[C@@H](OC(=O)CCCC(=O)O)[C@H](O[C@H]3[C@@H](CC=O)C[C@@H](C)[C@@H](O)/C=C/C=C/C[C@@H](C)OC(=O)C[C@@H](O)[C@@H]3OC)O[C@@H]2C)C[C@@]1(C)O (Klebsiella pneumoniae)
(A) 25

====

Tested on: Klebsiella pneumoniae
Test: Antimicrobial activity against Klebsiella pneumoniae ATCC 10031 by agar dilution method
Type: functional
Settings: Klebsiella pneumoniae, ATCC 10031; read-out: MIC
What MIC was measured for each of the following?
// units = µg/mL; emit number, no label

(Q) Quickly give me recorded MIC for CO[C@@H]1[C@@H](O[C@@H]2O[C@H](C)[C@@H](O[C@H]3C[C@@](C)(O)[C@@H](OC(=O)CC(C)C)[C@H](C)O3)[C@H](N(C)C)[C@H]2O)[C@@H](CC=O)C[C@@H](C)[C@@H](OC(=O)C(Cl)Cl)/C=C/C=C/C[C@@H](C)OC(=O)C[C@H]1OC(C)=O
(A) 50

(Q) Quickly give me recorded MIC for CCCC(=O)O[C@H]1[C@H](C)O[C@@H](O[C@H]2[C@H](N(C)C)[C@@H](OC(C)=O)[C@H](O[C@H]3[C@@H](CC=O)C[C@@H](C)[C@@H](O)/C=C/C=C/C[C@@H](C)OC(=O)C[C@@H](OC(C)=O)[C@@H]3OC)O[C@@H]2C)C[C@@]1(C)O
(A) 100

(Q) Quickly give me recorded MIC for CCCC(=O)O[C@H]1[C@H](C)O[C@@H](O[C@H]2[C@H](N(C)C)[C@@H](OC(=O)CCC(=O)O)[C@H](O[C@H]3[C@@H](CC=O)C[C@@H](C)[C@@H](OC(C)=O)/C=C/C=C/C[C@@H](C)OC(=O)C[C@@H](O)[C@@H]3OC)O[C@@H]2C)C[C@@]1(C)O
(A) 25

(Q) Quickly give me recorded MIC for CO[C@@H]1[C@@H](O[C@@H]2O[C@H](C)[C@@H](O[C@H]3C[C@@](C)(O)[C@@H](O)[C@H](C)O3)[C@H](N(C)C)[C@H]2O)[C@@H](CC=O)C[C@@H](C)[C@@H](O)/C=C/C=C/C[C@@H](C)OC(=O)C[C@H]1OC(C)=O
(A) 100

(Q) Quickly give me recorded MIC for CO[C@@H]1[C@@H](O[C@@H]2O[C@H](C)[C@@H](O[C@H]3C[C@@](C)(O)[C@@H](OC(=O)CC(C)C)[C@H](C)O3)[C@H](N(C)C)[C@H]2O)[C@@H](CC=O)C[C@@H](C)[C@@H](O)/C=C/C=C/C[C@@H](C)OC(=O)C[C@H]1OC(C)=O
(A) 25

(Q) Quickly give me recorded MIC for CCCC(=O)O[C@H]1[C@H](C)O[C@@H](O[C@H]2[C@H](N(C)C)[C@@H](O)[C@H](O[C@H]3[C@@H](CC=O)C[C@@H](C)[C@@H](O)/C=C/C=C/C[C@@H](C)OC(=O)C[C@@H](OC(C)=O)[C@@H]3OC)O[C@@H]2C)C[C@@]1(C)O
(A) 50

(Q) Quickly give me recorded MIC for CCCC(=O)O[C@H]1[C@H](C)O[C@@H](O[C@H]2[C@H](N(C)C)[C@@H](O)[C@H](O[C@H]3[C@@H](CC=O)C[C@@H](C)[C@@H](OC(=O)CCl)/C=C/C=C/C[C@@H](C)OC(=O)C[C@@H](O)[C@@H]3OC)O[C@@H]2C)C[C@@]1(C)O
(A) 25
